- Experimental Protocol: solvent given as SMILES
- Test Parameters: in CC#N
Recorded Endpoint: absorption maximum
The answer consists of two parts: a number and, after it, its unit.

Study these solved cases before continuing.
Compound	absorption maximum
N#C/C(=C\c1ccc([N+](=O)[O-])cc1)c1nc(-c2ccccc2)cs1	382 nm
O=C1c2ccccc2-c2ccc(N3CCN(c4ccccc4)CC3)c3cccc1c23	444 nm
CSc1sc(C(=O)c2ccccc2)c2nn[nH]c(=O)c12	396 nm
[O-]c1c(-c2nc3ccccc3s2)cc2ccc3cccc4ccc1c2c34	514 nm
O=Cc1cc(O)ccc1O	362 nm

List reported absorption maximum for each of these compounds:
1. CCC1(CC)c2ccccc2-c2c1c1c(c3c2C(CC)(CC)c2cc(N(c4ccccc4)c4ccccc4)ccc2-3)C(CC)(CC)c2ccccc2-1
2. COc1ccc(/C=C/C2=[O+][B-](F)(F)OC(/C=C/c3ccc(OC)cc3)=C2c2ccccc2)cc1
3. CN(C)CCNc1ccc([N+](=O)[O-])cc1[N+](=O)[O-]
4. N#CC(/N=C/c1c(O)ccc2ccccc12)=C(C#N)/N=C/c1c(O)ccc2ccccc12
5. Cc1cc(C)c2nc3[nH]c(=O)[nH]c(=O)c3nc2c1
6. COc1ccc2c(c1)c1c(OC)c3ccccc3c(OC)c1n2C
7. Cc1cc(=O)oc2ccc3ccc(O)cc3c12
8. C(=C\c1ccccc1)/c1ccccc1

353 nm
500 nm
352 nm
520 nm
388 nm
422 nm
347 nm
307 nm
